Give measured DC50 for each item. Keep answers brief.
SYSTEM UNDER TEST: Androgen Receptor (Homo sapiens, UniProt P10275)
Construct: endogenous in cells; host or cells: VCaP cells
Sequence (P10275 whole entry): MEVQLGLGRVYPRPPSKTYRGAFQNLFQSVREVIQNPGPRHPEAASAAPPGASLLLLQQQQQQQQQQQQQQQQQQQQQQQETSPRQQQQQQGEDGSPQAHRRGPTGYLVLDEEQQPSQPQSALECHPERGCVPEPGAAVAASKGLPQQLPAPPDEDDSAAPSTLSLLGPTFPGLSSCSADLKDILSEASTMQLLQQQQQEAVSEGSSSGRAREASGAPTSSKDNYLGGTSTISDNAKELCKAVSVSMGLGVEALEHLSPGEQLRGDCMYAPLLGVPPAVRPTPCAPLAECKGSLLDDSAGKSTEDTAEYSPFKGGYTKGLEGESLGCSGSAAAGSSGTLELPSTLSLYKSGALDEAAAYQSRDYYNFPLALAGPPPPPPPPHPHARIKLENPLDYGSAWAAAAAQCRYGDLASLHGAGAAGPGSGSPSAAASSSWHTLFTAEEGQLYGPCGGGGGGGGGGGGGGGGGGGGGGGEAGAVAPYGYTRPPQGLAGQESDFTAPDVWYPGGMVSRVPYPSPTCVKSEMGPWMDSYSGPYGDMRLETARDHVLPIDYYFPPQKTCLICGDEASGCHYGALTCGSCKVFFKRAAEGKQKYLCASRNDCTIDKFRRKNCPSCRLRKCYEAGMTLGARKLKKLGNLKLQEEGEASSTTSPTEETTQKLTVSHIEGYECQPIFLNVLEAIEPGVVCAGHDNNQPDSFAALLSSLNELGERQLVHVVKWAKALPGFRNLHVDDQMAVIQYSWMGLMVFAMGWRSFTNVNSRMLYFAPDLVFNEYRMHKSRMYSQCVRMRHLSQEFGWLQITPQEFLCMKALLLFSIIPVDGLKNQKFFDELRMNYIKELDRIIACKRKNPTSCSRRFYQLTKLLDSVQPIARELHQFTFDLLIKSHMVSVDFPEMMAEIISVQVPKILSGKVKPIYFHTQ
ASSAY TEXT: Androgen Receptor ELISA assay (PathScan AR ELISA) in VCaP cells: AR degradation, Dmax and DC50
Type: cell-based
CONDITIONS: VCaP cells; Table 36; read-out: VCaP DC50

Cc1ncsc1-c1ccc([C@H](C)NC(=O)[C@@H]2C[C@@H](O)CN2C(=O)[C@@H](NC(=O)COCCCCCNc2ccc(C(=O)N[C@H]3C(C)(C)[C@H](Oc4ccc(C#N)c(Cl)c4)C3(C)C)cc2F)C(C)(C)C)cc1; < 50 nM

Next compound, DC50 to be filled in.
Task: Requested read-out: DC50. Entry: Cc1ncsc1-c1ccc([C@H](C)NC(=O)C2C[C@@H](O)CN2C(=O)C(NC(=O)CN2CCC(OCCOc3ccc(C(=O)N[C@H]4C(C)(C)[C@H](Oc5ccc(C#N)c(Cl)c5)C4(C)C)cc3)CC2)C(C)(C)C)cc1 (some centres unmarked)
Result: < 50 nM
